Provenance of the data: patent US20060058231A1

TEST_TARGET: T1, ActRIIa receptor-Fc fusion (UniProt P27037 20-134, limits assumed)
T1 construct: BMP receptor-Fc fusion used at 5 ug/mL
T1 sequence (P27037 20-134 limits assumed): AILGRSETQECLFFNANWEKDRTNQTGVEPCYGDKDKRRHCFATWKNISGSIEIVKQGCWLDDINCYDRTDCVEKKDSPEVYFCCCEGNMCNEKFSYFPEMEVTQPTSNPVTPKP
MEASUREMENT_PROTOCOL: ELISA-like plate assay, captured BMP-7 from conditioned media, receptor-Fc detection
REPORTED_METRIC: ActRIIa binding (relative to wild type = 1.0)

Query: Given BMP-7 variant V26E (ligand, In conditioned media; numbering on mature BMP-7) STGGKQRSQNRSKTPKNQEALRMASEAENSSSDQRQACKKHELYVSFRDLGWQDWIIAPEGYAAYYCEGECAFPLNSYMNATNHAIVQTLVHFINPETVPKPCCAPTQLNAISVLYFDDSSNVILKKYRNMVVRACGCH , state its recorded ActRIIa binding (relative to wild type = 1.0).
Result: 1.02 relative to wild type

Query: Would you mind doing BMP-7 variant E60P (ligand, In conditioned media; numbering on mature BMP-7) STGGKQRSQNRSKTPKNQEALRMASVAENSSSDQRQACKKHELYVSFRDLGWQDWIIAPPGYAAYYCEGECAFPLNSYMNATNHAIVQTLVHFINPETVPKPCCAPTQLNAISVLYFDDSSNVILKKYRNMVVRACGCH as well?
Result: 0.94 relative to wild type

Query: Would you mind doing BMP-7 variant N76Y (ligand, In conditioned media; numbering on mature BMP-7) STGGKQRSQNRSKTPKNQEALRMASVAENSSSDQRQACKKHELYVSFRDLGWQDWIIAPEGYAAYYCEGECAFPLYSYMNATNHAIVQTLVHFINPETVPKPCCAPTQLNAISVLYFDDSSNVILKKYRNMVVRACGCH as well?
Result: 0.92 relative to wild type

Query: Would you mind doing BMP-7 variant Q53E (ligand, In conditioned media; numbering on mature BMP-7) STGGKQRSQNRSKTPKNQEALRMASVAENSSSDQRQACKKHELYVSFRDLGWEDWIIAPEGYAAYYCEGECAFPLNSYMNATNHAIVQTLVHFINPETVPKPCCAPTQLNAISVLYFDDSSNVILKKYRNMVVRACGCH as well?
Result: 0.98 relative to wild type

Query: Would you mind doing BMP-7 variant S77E (ligand, In conditioned media; numbering on mature BMP-7) STGGKQRSQNRSKTPKNQEALRMASVAENSSSDQRQACKKHELYVSFRDLGWQDWIIAPEGYAAYYCEGECAFPLNEYMNATNHAIVQTLVHFINPETVPKPCCAPTQLNAISVLYFDDSSNVILKKYRNMVVRACGCH as well?
Result: 1.17 relative to wild type

Query: Would you mind doing BMP-7 variant F73S (ligand, In conditioned media; numbering on mature BMP-7) STGGKQRSQNRSKTPKNQEALRMASVAENSSSDQRQACKKHELYVSFRDLGWQDWIIAPEGYAAYYCEGECASPLNSYMNATNHAIVQTLVHFINPETVPKPCCAPTQLNAISVLYFDDSSNVILKKYRNMVVRACGCH as well?
Result: 2.54 relative to wild type

Query: Would you mind doing BMP-7 variant R48N (ligand, In conditioned media; numbering on mature BMP-7) STGGKQRSQNRSKTPKNQEALRMASVAENSSSDQRQACKKHELYVSFNDLGWQDWIIAPEGYAAYYCEGECAFPLNSYMNATNHAIVQTLVHFINPETVPKPCCAPTQLNAISVLYFDDSSNVILKKYRNMVVRACGCH as well?
Result: 0.93 relative to wild type

Query: Would you mind doing BMP-7 variant L21E (ligand, In conditioned media; numbering on mature BMP-7) STGGKQRSQNRSKTPKNQEAERMASVAENSSSDQRQACKKHELYVSFRDLGWQDWIIAPEGYAAYYCEGECAFPLNSYMNATNHAIVQTLVHFINPETVPKPCCAPTQLNAISVLYFDDSSNVILKKYRNMVVRACGCH as well?
Result: 0.25 relative to wild type
